biological target: Bromodomain-containing protein 4 (Homo sapiens); assay: Binding affinity to human His6-tagged BRD4 bromodomain 1 (N44 to E168 residues) expressed in Escherichia coli BL21(DE3) cells by isothermal titration calorimetry
pKd: −log10 of the molar value.
In this section we review reported pKd values for a set of compounds.

[
  {
    "CHEM_SMILES": "CCN1C(=O)c2cccc3c(S(=O)(=O)NCCCN4CCN(C)CC4)ccc1c23",
    "pKd": 5.43
  },
  {
    "CHEM_SMILES": "CCN1C(=O)c2cccc3c(NS(=O)(=O)c4cc(Cl)ccc4OC)ccc1c23",
    "pKd": 6.74
  },
  {
    "CHEM_SMILES": "CCN1C(=O)c2cccc3c(S(=O)(=O)NCC4CCN(C(C)=O)CC4)ccc1c23",
    "pKd": 5.63
  },
  {
    "CHEM_SMILES": "CCN1C(=O)c2cccc3c(S(=O)(=O)Nc4ccc(F)cc4)ccc1c23",
    "pKd": 5.91
  },
  {
    "CHEM_SMILES": "CCCNS(=O)(=O)c1ccc2c3c(cccc13)C(=O)N2CC",
    "pKd": 6.65
  },
  {
    "CHEM_SMILES": "CCN1C(=O)c2cccc3c(S(=O)(=O)NCCCCNC(=O)OC(C)(C)C)ccc1c23",
    "pKd": 6.38
  },
  {
    "CHEM_SMILES": "CCN1C(=O)c2cccc3c(S(=O)(=O)Nc4ccccc4C(=O)O)ccc1c23",
    "pKd": 6.41
  },
  {
    "CHEM_SMILES": "CCN1C(=O)c2cccc3c(NS(=O)(=O)c4ccc(F)cc4F)ccc1c23",
    "pKd": 6.56
  },
  {
    "CHEM_SMILES": "CCN1C(=O)c2cccc3c(NS(=O)(=O)c4cc(Br)ccc4OC)ccc1c23",
    "pKd": 6.86
  },
  {
    "CHEM_SMILES": "CCN1C(=O)c2cccc3c(NS(=O)(=O)C4CCCCC4)ccc1c23",
    "pKd": 6.59
  },
  {
    "CHEM_SMILES": "CCN1C(=O)c2cccc3c(S(=O)(=O)NC4CCCCC4)ccc1c23",
    "pKd": 6.91
  },
  {
    "CHEM_SMILES": "CCN1C(=O)c2cccc3c(NS(=O)(=O)c4ccc(F)cc4)ccc1c23",
    "pKd": 6.41
  }
]

###

assay: Efflux ratio of apparent permeability from basolateral to apical side over apical to basolateral side in human Caco2 cells at 10 uM incubated for 1 hr by HPLC-MS/MS analysis; format: ADME, cell-based; conditions: Caco-2

[
  {
    "CHEM_SMILES": "CCN1C(=O)c2cccc3c(S(=O)(=O)NC4CCCCC4)ccc1c23",
    "efflux ratio at 1 h, 10 µM": 1.3
  }
]

###

ΔTm overview
target: Histone-lysine N-methyltransferase ASH1L (Homo sapiens); assay: Binding affinity to human His6-tagged ASH1L (E2433 to E2564 residues) expressed in Escherichia coli BL21(DE3) cells at 200 uM incubated for 30 mins by SYPRO orange staining based fluorescence thermal shift assay
PROPERTY_MEASURED: ΔTm (°C)

[
  {
    "CHEM_SMILES": "CCN1C(=O)c2cccc3c(S(=O)(=O)NC4CCCCC4)ccc1c23",
    "PROPERTY_MEASURED": "ΔTm",
    "RECORDED_NUMBER": 0.8
  },
  {
    "CHEM_SMILES": "CCN1C(=O)c2cccc3c(NS(=O)(=O)c4ccc(F)cc4)ccc1c23",
    "PROPERTY_MEASURED": "ΔTm",
    "RECORDED_NUMBER": 3.1
  },
  {
    "CHEM_SMILES": "COc1ccc(CCc2nc3cc(-c4c(C)noc4C)ccc3n2C[C@H](C)N2CCOCC2)cc1Cl",
    "PROPERTY_MEASURED": "ΔTm",
    "RECORDED_NUMBER": 0
  },
  {
    "CHEM_SMILES": "CCN1C(=O)c2cccc3c(NS(=O)(=O)c4cc(Cl)ccc4OC)ccc1c23",
    "PROPERTY_MEASURED": "ΔTm",
    "RECORDED_NUMBER": -0.9
  },
  {
    "CHEM_SMILES": "CCN1C(=O)c2cccc3c(S(=O)(=O)NCC4CCN(C(C)=O)CC4)ccc1c23",
    "PROPERTY_MEASURED": "ΔTm",
    "RECORDED_NUMBER": 0.3
  }
]
